# target.desc: T1, recombinant His-tagged human IFNAR-1-ECD protein (human, UniProt P17181 28-436)
# T1 construct: extracellular domain; the Biacore text says His-tagged human IFNAR-1-ECD; also called His-tagged IFNAR-1; hIFNAR-1 protein; not shown: His tag
# T1 sequence (looked up): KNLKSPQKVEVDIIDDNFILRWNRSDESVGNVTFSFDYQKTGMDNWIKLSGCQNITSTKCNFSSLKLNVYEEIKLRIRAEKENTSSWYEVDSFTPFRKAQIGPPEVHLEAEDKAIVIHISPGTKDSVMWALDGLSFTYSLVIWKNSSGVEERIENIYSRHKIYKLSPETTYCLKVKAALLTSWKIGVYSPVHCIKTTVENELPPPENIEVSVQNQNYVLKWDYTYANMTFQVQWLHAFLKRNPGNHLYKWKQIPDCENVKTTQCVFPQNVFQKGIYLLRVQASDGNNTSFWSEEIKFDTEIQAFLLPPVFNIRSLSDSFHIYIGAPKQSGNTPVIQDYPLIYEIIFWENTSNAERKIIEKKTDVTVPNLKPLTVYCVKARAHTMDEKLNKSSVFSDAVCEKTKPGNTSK
# assay: ELISA, coated His-tagged IFNAR-1
Consider the following binders and their measured EC50 readings.
Reply with just the number (in nM).

Record excerpt, results attached:
269A7 (antibody, V domains shown, Hybridoma-derived monoclonal antibody) VH: EVQLQESGPGLAKPSQTLSLTCSVTGYSITSDYWNWIRKFPGNKLEYMGYISYSGTIYYNPSLKSRISITRDTSKNQYYLQLNSVTNEDTATYYCARSGGMYYFDYWGQGTTLTVSS VL: DIQMTQSPASLSASVGETVTITCRASGNIHNYLAWYQQKQGKSPQLLVYNAKTLEDGVPSRFSGSGSGTQYSLKINSLQPEDFGSYYCQHFWSIPPTFGSGTKLEIK | 0.476
106A7 (antibody, V domains shown, Hybridoma-derived monoclonal antibody) VH: EVQLQQSGADLVKPGASVKLSCTTSGFNIKDYYMHWVNQRTEQGLEWIGRIDPEDGETKYAPKFQGKATITADTSSNTAYLQLSSLTSEDTAVYYCARDWGHSFDYWGQGTTLTVSS VL: DIVMTQSQKFMSTSVGDRVSVTCKASQNVGTTVAWYQQKPGQSPKTLIYSASYRYSGVPDRFTGSGSGTDFTLTISNVQSEDLAEYFCQQYNSYTFGGGTKLEMK | 0.099
370E5 (antibody, V domains shown, Hybridoma-derived monoclonal antibody) VH: EVQLQQSGAELVKPGASVKLSCTASGFNIKDYYIHWVKQRTEQGLEWIGRIDPEDGETKYAPKFQGKATITADTSSNTAYLQLSSLTSEDTAVYYCARFGGLTAMDYWGQGTSVTVSS VL: DIVMTQSQKFMSTSVGDRVSVTCKASQNVGTNVAWYQQKPGQSPKALIYATSYRYSGVPDRFTGSGSGTDFTLTISNVQSEDLAEYFCQQYNNYPYTFGGGTKLEIK | 0.052
392D6 (antibody, V domains shown, Hybridoma-derived monoclonal antibody) VH: AVQLQQSGTELVKPGASVKLSCSASGFNIKDYYVHWVKQKTEQGLEWIGRIDPEDGETKYAPKFQGKATVTADTSSNTAYMQLSSLTSEDTAVYYCTRFGGLDAMDYWGQGTSVTVSS VL: DIVMTQSQKFMSTSVGDRVSVTCKASQNVGTNVAWYQQKPGQSPKPLIYSTSYRYNGVPDRFTGSGSGTEFTLTISNVQSEDLAEYFCQQFNRYPYTFGGGTKLEIK | 0.054

API: the following record is the query input.
[Q] Look up EC50: 487E3 (antibody, V domains shown, Hybridoma-derived monoclonal antibody) VH: EVQLQQSGAELVKPGASVKLSCSASGFNIKDCYIHWVKQRTEQGLEWIGRIDPEDGETKYAPKFQAKATITADTSSNTAYLQLNSLTSEDTAVYYCARHCNFLYFDYWGQGSTLTVS VL: DIVMTQSQKSMSTSLGDRVTVTCKASQNVGTIVAWYQLKPGQSPKTLIYSASYRSSGVPDRFTGSGSGTDFTLTISNVQSEDLAEYFCQQYNNYPVIFGSGTKLEIR
[A] 0.028
